Tested on: Staphylococcus aureus MW2 (mecA+)
Experiment: normalized DsRed fluorescence (growth of mecA+ strain) (fraction of control range); higher = more growth of mecA+ strain
Conditions: compound concentration: 150 uM; cefoxitin: subinhibitory; fluorescent label: DsRed
Where a name gives a salt, the structure may show the parent alone.
reported property: normalized DsRed fluorescence

>>> df
                                    compound  observed_value
 0  CN1C(=O)CCS(=O)(=O)C1c1ccc(Cl)cc1 (configuration not stated)           0.676
 1  CN1C(=O)C(O)N=C(c2ccccc2)c2cc(Cl)ccc21 (configuration not stated)           0.691
 2  COP(=O)(OC)C(O)C(Cl)(Cl)Cl (configuration not stated)           0.658
 3  O=C(O[C@H]1C[C@H]2CC[C@@H](C1)[N+]21CCCC1)C(O)(c1ccccc1)c1ccccc1 [Trospium chloride (Sanctura)]           0.453
 4              O=c1n(Cl)c(=O)n(Cl)c(=O)n1Cl            0.35
 5  CCN(C(C)=O)c1cccc(-c2ccnc3c(C#N)cnn23)c1           0.598
 6                         NCCCNCCSP(=O)(O)O            0.76
 7  COc1ccc(OC)c(C(O)C(C)N)c1 (configuration not stated)           0.526
 8           CC(C)N(CCNC(=O)CN1CCCC1=O)C(C)C           0.402
 9  CCCN1C[C@H](CSC)C[C@@H]2c3cccc4[nH]cc(c34)C[C@H]21 [Pergolide mesylate]            1.03
10  CC[C@@H](CO)NC(=O)[C@@H]1C=C2c3cccc4c3c(cn4C)C[C@H]2N(C)C1           0.713
11                       NCC1(CC(=O)O)CCCCC1           0.674

----------
Tested on: Staphylococcus aureus MW2 (mecA+)
Assay: normalized DsRed fluorescence (growth of mecA+ strain) (fraction of control range); higher = more growth of mecA+ strain
Settings: compound concentration: 150 uM; cefoxitin: subinhibitory; fluorescent label: DsRed
Classify by measured normalized DsRed fluorescence: condition met if it is equal to or exceeds 0.8, condition not met if it is smaller.

molecule	answer label
CN1[C@@H]2C[C@@H](OC(=O)[C@H](CO)c3ccccc3)C[C@H]1[C@@H]1O[C@@H]12	condition not met
C=C/C=C\CC1=C(C)[C@@H](OC(=O)[C@@H]2[C@@H](/C=C(\C)C(=O)OC)C2(C)C)CC1=O.C=C/C=C\CC1=C(C)[C@@H](OC(=O)[C@@H]2[C@@H](C=C(C)C)C2(C)C)CC1=O	condition not met
C[C@]12CC[C@H]3[C@@H](CCC4=CC(=O)CC[C@@]43C)[C@@H]1CC[C@@H]2O	condition not met
CO[C@]12C[C@@H](COC(=O)c3cncc(Br)c3)CN(C)[C@@H]1Cc1cn(C)c3cccc2c13	condition not met
CC[C@@H](C(N)=O)N1CCCC1=O	condition met
Cc1ccc(-c2nc3ccc(C)cn3c2CC(=O)N(C)C)cc1	condition not met
O=C(O)CCCc1ccc(N(CCCl)CCCl)cc1	condition met
CC(C)N(CCC(C(N)=O)(c1ccccc1)c1ccccn1)C(C)C (centres undefined)	condition not met

----------
System: Staphylococcus aureus MW2 (mecA+)
Test: normalized DsRed fluorescence (growth of mecA+ strain) (fraction of control range); higher = more growth of mecA+ strain
Settings: compound concentration: 150 uM; cefoxitin: subinhibitory; fluorescent label: DsRed
Classify by normalized DsRed fluorescence. Ranges: bin 0: < 0.6; bin 1: ≥ 0.6 and < 0.7; bin 2: ≥ 0.7

compound	answer label
NC(=O)C[S@@+]([O-])C(c1ccccc1)c1ccccc1	bin 2
CC(O)CN1CCN(CC(=O)[O-])CCN(CC(=O)[O-])CCN(CC(=O)[O-])CC1.[Gd+3] (centres undefined)	bin 0
COc1ccc(C(CN(C)C)C2(O)CCCCC2)cc1 (centres undefined)	bin 1
COc1ccc2c(c1)[C@]13CCCC[C@@H]1[C@H](C2)N(C)CC3	bin 2
CC(=O)O[C@H]1C[C@@H]2CC[C@@H]3[C@H](CC[C@@]4(C)[C@H]3C[C@H]([N+]3(C)CCCCC3)[C@@H]4OC(C)=O)[C@@]2(C)C[C@@H]1[N+]1(C)CCCCC1 [Pancuronium (Pavulon)]	bin 0
O=[N+]([O-])O[C@H]1CO[C@H]2[C@@H]1OC[C@H]2O[N+](=O)[O-]	bin 1

----------
System: Staphylococcus aureus MW2 delta-mecA (mecA-)
Assay: normalized GFP fluorescence (growth of mecA- strain) (fraction of control range); higher = more growth of mecA- strain
Conditions: compound concentration: 150 uM; cefoxitin: subinhibitory; fluorescent label: GFP
Counter-ions that a name gives are not always drawn.
Classify by normalized GFP fluorescence. Ranges: lowest (below 0.4), middle (0.4 to below 0.6), highest (0.6 or more)

>>> df
                                    compound  answer_label
 0                                 Nc1ccncc1        lowest
 1  C[C@H]1CNCCc2ccc(Cl)cc21 [Lorcaserin HCl]        middle
 2                          N.N.[Cl][Pt][Cl]       highest
 3  C[N+]12CCC(CC1)C(OC(=O)C(O)(c1ccccc1)c1ccccc1)C2 (configuration not stated)        middle
 4                        CNC(C)(C)Cc1ccccc1       highest
 5  CN1[C@@H]2CC[C@H]1C[C@@H](OC(=O)[C@H](CO)c1ccccc1)C2       highest
 6                       NCC1(CC(=O)O)CCCCC1       highest
 7  CN1C(=O)C(O)N=C(c2ccccc2)c2cc(Cl)ccc21 (configuration not stated)        lowest
 8  CC(O)(CS(=O)(=O)c1ccc(F)cc1)C(=O)Nc1ccc(C#N)c(C(F)(F)F)c1 (configuration not stated) [Bicalutamide (Casodex)]        lowest
 9  N[C@@H]1C[C@H]1c1ccccc1.N[C@H]1C[C@@H]1c1ccccc1        middle
10  O=[N+]([O-])O[C@H]1CO[C@H]2[C@@H]1OC[C@H]2O[N+](=O)[O-]       highest
11              O=c1n(Cl)c(=O)n(Cl)c(=O)n1Cl        lowest
12                    c1ccc2c(c1)Nc1ccccc1S2        lowest
13   Cc1ccc(-c2nc3ccc(C)cn3c2CC(=O)N(C)C)cc1        lowest
14  CCN(C(C)=O)c1cccc(-c2ccnc3c(C#N)cnn23)c1       highest
15  CNCC(O)c1ccc(O)cc1 (configuration not stated) [Synephrine (Oxedrine)]        middle

----------
System: Staphylococcus aureus MW2 (mecA+)
Test: normalized DsRed fluorescence (growth of mecA+ strain) (fraction of control range); higher = more growth of mecA+ strain
Details: compound concentration: 150 uM; cefoxitin: subinhibitory; fluorescent label: DsRed
Counter-ions that a name gives are not always drawn.
Classify by measured normalized DsRed fluorescence: 1 (yes) if it is equal to or exceeds 0.7, 0 (no) if it is smaller.

compound	answer label
NCC(CC(=O)O)c1ccc(Cl)cc1 (centres undefined)	1 (yes)
C=C1C[C@@H]2[C@H](CC[C@]3(C)C(=O)CC[C@@H]23)[C@@]2(C)C=CC(=O)C=C12 [Exemestane]	0 (no)
C=CCN1CC[C@]23c4c5ccc(O)c4O[C@H]2C(=O)CC[C@@]3(O)[C@H]1C5	0 (no)
O=C1CN=C(c2ccccc2Cl)c2cc([N+](=O)[O-])ccc2N1	1 (yes)
CC(NC(C)(C)C)C(=O)c1cccc(Cl)c1 (centres undefined)	1 (yes)
C#CCN(C)[C@H](C)Cc1ccccc1	0 (no)
Oc1cccc2cccnc12	0 (no)
CNC(C)[C@H](O)c1ccccc1 (some centres undefined)	1 (yes)
CNCC(=O)c1ccc(O)c(O)c1 [Adrenalone HCl]	1 (yes)
C[N+]12CCC(CC1)C(OC(=O)C(O)(c1ccccc1)c1ccccc1)C2 (centres undefined)	0 (no)
CNc1ccc(C(=O)CC(O)CCC(C)C2OC(=O)CC(O)CC(=O)CC(O)CC(O)CC(O)CC(O)CC3(O)CC(O)C(C(=O)OC)C(CC(O[C@@H]4O[C@H](C)[C@@H](O)[C@H](N)[C@@H]4O)/C=C/C=C/C=C/C=C/C=C/C=C/C=C/C2C)O3)cc1.COC(=O)C1C(O)CC2(O)CC(O)CC(O)CC(O)CC(O)CC(=O)CC(O)CC(=O)OC(C(C)CCC(O)CC(=O)c3ccc(N)cc3)C(C)/C=C/C=C/C=C/C=C/C=C/C=C/C=C/C(O[C@@H]3O[C@H](C)[C@@H](O)[C@H](N)[C@@H]3O)CC1O2 (some centres undefined)	0 (no)
O=P1(N(CCCl)CCCl)NCCCO1 (centres undefined)	0 (no)
C[C@@H]1[C@H](O)[C@@H](C)/C=C/C=C/CC/C=C/C=C/C=C/C=C/[C@H](O[C@H]2O[C@@H](C)[C@H](O)[C@@H](N)[C@H]2O)C[C@@H]2O[C@](O)(C[C@@H](O)[C@H](O)CC[C@@H](O)C[C@@H](O)C[C@@H](O)CC(=O)O[C@H]1C)C[C@H](O)[C@H]2C(=O)O [Nystatin (Fungicidin)]	0 (no)
CC[C@@H](c1cccc(O)c1)[C@@H](C)CN(C)C	1 (yes)
CC(=O)O[C@H]1C[C@H](O[C@H]2[C@@H](O)C[C@H](O[C@H]3[C@@H](O)C[C@H](O[C@H]4CC[C@@]5(C)[C@H](CC[C@@H]6[C@@H]5C[C@@H](O)[C@]5(C)[C@@H](C7=CC(=O)OC7)CC[C@]65O)C4)O[C@@H]3C)O[C@@H]2C)O[C@H](C)[C@H]1O[C@@H]1O[C@H](CO)[C@@H](O)[C@H](O)[C@H]1O	1 (yes)
CCN(C)C(=O)Oc1cccc([C@H](C)N(C)C)c1	1 (yes)
COc1cc2c(c(OC)c1OC)-c1ccc(OC)c(=O)cc1[C@@H](NC(C)=O)CC2	1 (yes)
NC(=O)CN1CCCC1=O	0 (no)
C[C@]12CC[C@H]3[C@@H](CC[C@@]45O[C@@H]4C(O)=C(C#N)C[C@]35C)[C@@H]1CC[C@@H]2O	1 (yes)
CC(Cc1ccc(O)cc1)NCC(O)c1cc(O)cc(O)c1 (centres undefined)	1 (yes)
NC(=O)C[S+]([O-])C(c1ccccc1)c1ccccc1 (centres undefined)	0 (no)
CNC(C)(C)Cc1ccccc1	1 (yes)
C[C@H]1CNCCc2ccc(Cl)cc21 [Lorcaserin HCl]	0 (no)
C[C@@H]1CC[C@H]2[C@@H](C)C(=O)O[C@@H]3O[C@@]4(C)CC[C@@H]1[C@]32OO4 [Artemisinin]	0 (no)
CCCC(C)(COC(N)=O)COC(=O)NC(C)C (centres undefined)	1 (yes)
CN1C[C@H](C(=O)N[C@]2(C)O[C@@]3(O)[C@@H]4CCCN4C(=O)[C@H](Cc4ccccc4)N3C2=O)C=C2c3cccc4[nH]cc(c34)C[C@H]21	1 (yes)
CCC1(c2ccc(N)cc2)CCC(=O)NC1=O (centres undefined)	1 (yes)
c1ccc2c(c1)Nc1ccccc1S2	0 (no)
O=[N+]([O-])O[C@@H]1CO[C@H]2[C@@H]1OC[C@@H]2O	1 (yes)
C[C@@H]1O[C@@H](O[C@@H]2C=C3CC[C@@H]4[C@H](CC[C@]5(C)[C@@H](c6ccc(=O)oc6)CC[C@]45O)[C@@]3(C)CC2)[C@H](O)[C@H](O)[C@H]1O	1 (yes)
